subject_of_test: FP receptor (Homo sapiens, UniProt P43088)
Sequence (P43088 whole entry): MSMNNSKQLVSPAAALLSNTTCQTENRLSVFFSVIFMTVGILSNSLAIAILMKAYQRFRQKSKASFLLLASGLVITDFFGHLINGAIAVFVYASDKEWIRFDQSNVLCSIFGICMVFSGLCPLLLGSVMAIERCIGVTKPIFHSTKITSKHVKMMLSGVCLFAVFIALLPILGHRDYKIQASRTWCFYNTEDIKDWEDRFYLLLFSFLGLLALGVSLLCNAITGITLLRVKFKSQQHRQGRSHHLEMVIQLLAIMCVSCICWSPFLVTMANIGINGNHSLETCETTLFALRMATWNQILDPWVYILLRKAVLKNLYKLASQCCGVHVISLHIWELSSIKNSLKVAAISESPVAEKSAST
assay_details: Antagonist Ca2+ assay: FP antagonists on PGF2α-stimulated Ca2+ transients in MYLA cells
Format: cell-based
Design: endogenous in cells; host or cells: MYLA cells (conditionally immortalised human myometrial cells; hTERT + temperature-sensitive SV40 large T)
condition_set: in the presence of 1 µM PGF2α
Entry flag: Met if HillSlope ± SD, effect on frequency reaches -0.7; Not met if it does not.

Given the entry CC(C)Cn1ncc2cc(Cl)cc(Cn3nc(N)c4cc(C(=O)O)ccc43)c21 , answer whether its HillSlope ± SD, effect on frequency meets or surpasses -0.7.
Met

Follow-up entry: O=C(N[C@@H](CCO)c1ccc(F)cc1)[C@@H]1SCCN1S(=O)(=O)c1ccc(-c2ccccc2)cc1
Met

Next compound: Cc1c(-c2ccccc2)nc2ccc(Br)cc2c1C(=O)NCC(CCC(=O)O)c1ccccc1Cl (centres unmarked)
Not met

Entry to check: O=C(N[C@H](c1ccc(F)cc1)[C@H]1CCS(=O)(=O)C1)[C@@H]1CCN1S(=O)(=O)c1ccc(-c2cccnc2)cc1
Met

###

Could you please report measured IC50 for the items listed next?
subject_of_test: FP receptor (Homo sapiens)
assay_details: Antagonist Ca2+ assay: FP antagonists on PGF2α-stimulated Ca2+ transients in MYLA cells
Assay type: cell-based
Design: endogenous in cells; host or cells: MYLA cells (conditionally immortalised human myometrial cells; hTERT + temperature-sensitive SV40 large T)
condition_set: 300 pM–10 µM antagonist in the presence of 1 µM PGF2α, N = 3, read-out: IC50, effect on Fmax
Provide only the numeric value, understood in nM.

IC50 for CC(C)Cn1ncc2cc(Cl)cc(Cn3nc(N)c4cc(C(=O)O)ccc43)c21 ?
194

Then what about the compound O=C(N[C@@H](CCO)c1ccc(F)cc1)[C@@H]1SCCN1S(=O)(=O)c1ccc(-c2ccccc2)cc1 ?
78.3

How about this compound: Cc1c(-c2ccccc2)nc2ccc(Br)cc2c1C(=O)NCC(CCC(=O)O)c1ccccc1Cl (stereo not shown)
284

Then O=C(N[C@H](c1ccc(F)cc1)[C@H]1CCS(=O)(=O)C1)[C@@H]1CCN1S(=O)(=O)c1ccc(-c2cccnc2)cc1 ?
21.3
